These data points were gathered from paper PMC8791645.

Test system: M9-ENL1 cells
Experiment: MTT cell viability assay with M9-ENL1 cells
Format: cell-based
Property: CC50 (µM)
Give the value, in units of µM, as a plain number.

C=C1C(=O)O[C@H]2[C@H]1CCC(C)=C1[C@H](OC(=O)c3ccc(C(F)(F)F)cc3)C[C@@](C)(O)[C@@H]12 | 1.8

Now for another entry.
Input "C=C1C(=O)O[C@H]2[C@H]1CCC(COC(=O)c1cc(C(F)(F)F)cc(C(F)(F)F)c1)=C1CC[C@@](C)(O)[C@@H]12" . Output CC50: 4.1
